- Substrate: CCCCCCCCCCCCCCCCOC[C@@H](O)COP(=O)([O-])OCC[N+](C)(C)C
- method: released choline by choline oxidase/peroxidase colorimetric assay, Michaelis-Menten fit
- Assay type: biochemical, Thermocrispum sp. RD004668
- run-conditions: pH 8.0, 50 °C, 1 min, 2 mM CaCl2, substrate micelles
So I've got a bunch of proteins here, and I need their kcat values.
Give bare numbers, in s⁻¹.

protein: LyPls-PLD (lysoplasmalogen-specific phospholipase D) (Thermocrispum sp. RD004668; N173A) (protein, recombinant from pET24/lpls-pld in E. coli BL21(DE3); purified on HisTrap HP) TTRTTDNPWLDARVLNMAHAGGENEAPANTLYAFKRAVKLGANMLELDVQSTKDDQLVVIHNATVDQTTDGTGKVRDLTFEQVHELDAAYNFIPGRHAVPGEPPESYPLRGVRTGEKKPPPGYQPSDFAIPKLADVLEAFPRTPIAIEIKGTSDADIPSFLHNAKLLARLLKKTGRTDFIVTSFNDLAVAKFHLLAPDIPIAPGMAGLAAYFLLGVKPMHGTVALQIPVRYQGLEIATPEFIRRAHADGYAVHVWFSGTAPDDEATYNRIIDSCADGLMPAYPALLERILDERGIERPGRPGVDPCG
kcat, s⁻¹: 106

In the following, a different protein is considered.
What value of measured kcat is listed for LyPls-PLD (lysoplasmalogen-specific phospholipase D) (Thermocrispum sp. RD004668; F211C) (protein, recombinant from pET24/lpls-pld in E. coli BL21(DE3); purified on HisTrap HP) TTRTTDNPWLDARVLNMAHAGGENEAPANTLYAFKRAVKLGANMLELDVQSTKDDQLVVIHNATVDQTTDGTGKVRDLTFEQVHELDAAYNFIPGRHAVPGEPPESYPLRGVRTGEKKPPPGYQPSDFAIPKLADVLEAFPRTPINIEIKGTSDADIPSFLHNAKLLARLLKKTGRTDFIVTSCNDLAVAKFHLLAPDIPIAPGMAGLAAYFLLGVKPMHGTVALQIPVRYQGLEIATPEFIRRAHADGYAVHVWFSGTAPDDEATYNRIIDSCADGLMPAYPALLERILDERGIERPGRPGVDPCG ?
207

// provenance: paper PMC8016129
